- MEASUREMENT_DESCRIPTION: Phase I study CXR1002-001: plasma pharmacokinetics (LC-MS/MS)
- Type: in vivo, human
- CONDITION_DETAILS: human, plasma, oral, 600 mg, Patient 023, 600 mg, person, plasma, 4 hr; read-out: Concentration
MEASURED_QUANTITY: concentration at 4 h (µM)
Number in µM, nothing else.

Recorded concentration at 4 h for O=C(O)C(F)(F)C(F)(F)C(F)(F)C(F)(F)C(F)(F)C(F)(F)C(F)(F)F , please? 236

###

- MEASUREMENT_DESCRIPTION: Phase I study CXR1002-001: plasma pharmacokinetics (LC-MS/MS)
- Type: in vivo, human
- CONDITION_DETAILS: human, plasma, oral, 950 mg, Patient 031, 950 mg, person, plasma, 3 hr; read-out: Concentration
MEASURED_QUANTITY: concentration at 3 h (µM)
Number in µM, nothing else.

Recorded concentration at 3 h for O=C(O)C(F)(F)C(F)(F)C(F)(F)C(F)(F)C(F)(F)C(F)(F)C(F)(F)F , please? 338

// provenance: patent US20130029928A1
